- Assayed System: 5-hydroxytryptamine receptor 2A (Homo sapiens, UniProt P28223)
- Sequence (P28223 whole entry): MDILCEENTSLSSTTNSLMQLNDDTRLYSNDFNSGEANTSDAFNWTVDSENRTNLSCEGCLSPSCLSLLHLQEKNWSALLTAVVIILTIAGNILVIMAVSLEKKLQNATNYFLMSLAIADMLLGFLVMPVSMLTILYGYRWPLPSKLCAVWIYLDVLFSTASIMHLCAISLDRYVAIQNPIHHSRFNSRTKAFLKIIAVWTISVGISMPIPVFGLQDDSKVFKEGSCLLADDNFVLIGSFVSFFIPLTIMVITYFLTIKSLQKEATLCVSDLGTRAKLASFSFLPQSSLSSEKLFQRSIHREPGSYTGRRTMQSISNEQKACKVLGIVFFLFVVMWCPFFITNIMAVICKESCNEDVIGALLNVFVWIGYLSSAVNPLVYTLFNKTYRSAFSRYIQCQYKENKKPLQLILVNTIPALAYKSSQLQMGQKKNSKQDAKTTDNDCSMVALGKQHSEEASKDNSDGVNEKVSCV
- Procedure Summary: Agonist activity at 5-HT2A receptor in HEK293 cells assessed as calcium mobilisation by Fluo-4 dye based assay
pEC50: −log10 of the molar value.
Property Label: pEC50

So for `COc1ccc2c(c1)O[C@]1(CC2=O)CN2CCC1CC2` , the logged pEC50 turned out to be < 4.52

---

- Assayed System: 5-hydroxytryptamine receptor 2A (Homo sapiens)
- Procedure Summary: Antagonist activity at 5-HT2A receptor in HEK293 cells assessed as calcium mobilisation by Fluo-4 dye based assay
Property Label: IC50

`COc1ccc2c(c1)O[C@]1(CC2=O)CN2CCC1CC2` has a reported IC50 of > 30 µM

Documented IC50 of `O=C1C[C@]2(CN3CCC2CC3)Oc2c1ccc1ccccc21` : 50 µM

Per the records, this compound ( `O=C1C[C@]2(CN3CCC2CC3)Oc2cc(OCC3CC3)ccc21` ) has IC50 equal to > 100 µM

IC50 for `COc1cccc2c1C(=O)C[C@]1(CN3CCC1CC3)O2` is > 100 µM

IC50 in this record for `Cc1ccc2c(c1)O[C@]1(CC2=O)CN2CCC1CC2` : > 100 µM

// IC50 value for `O=C1C[C@]2(CN3CCC2CC3)Oc2ccc(Br)cc21` : > 10 µM

IC50 reported for this compound `O=C1C[C@]2(CN3CCC2CC3)Oc2ccccc21` : > 10 µM

get_value(item= `COc1ccc2c(c1)C(=O)C[C@]1(CN3CCC1CC3)O2` , readout=IC50) returns > 10 µM

Item: O=C1CC2(CN3CCC2CC3)Oc2c1ccc1ccccc21 (racemic) | IC50: 20 µM

// `O=C1C[C@]2(CN3CCC2CC3)Oc2cc(Br)ccc21` : IC50 value = 15 µM

Entry `O=C1C[C@@]2(CN3CCC2CC3)Oc2c1ccc1ccccc21` — recorded IC50 = > 100 µM

In plain terms, `O=C1C[C@]2(CN3CCC2CC3)Oc2cc3ccccc3cc21` has a documented IC50 of 50 µM

Short answer for `O=C1C[C@]2(CN3CCC2CC3)Oc2ccc(F)cc21` : IC50 was > 10 µM

`O=C1C[C@]2(CN3CCC2CC3)Oc2cc(O)ccc21` has a reported IC50 of > 100 µM

Source of measurements: ChEMBL document CHEMBL5360648
